system: H69/LX4, human small lung cell line, overexpressing PgP
MEASUREMENT_LABEL: IC50

Lookup: Query: IC50; subject: CCCCCCCCC=CCCCCCCCC(=O)NC1CC(OC2CC(O)(C(=O)CO)Cc3c(O)c4c(c(O)c32)C(=O)c2c(OC)cccc2C4=O)OC(C)C1O (stereo not shown) [Doxorubicine-elaidic-amide, Elaidic acid doxorubicin amide]
Found: > 50 µM
